- study.system: Human FRA on IGROV-1 human ovarian adenocarcinoma cells (human, UniProt P15328 25-234)
- Sequence (P15328 25-234 limits assumed): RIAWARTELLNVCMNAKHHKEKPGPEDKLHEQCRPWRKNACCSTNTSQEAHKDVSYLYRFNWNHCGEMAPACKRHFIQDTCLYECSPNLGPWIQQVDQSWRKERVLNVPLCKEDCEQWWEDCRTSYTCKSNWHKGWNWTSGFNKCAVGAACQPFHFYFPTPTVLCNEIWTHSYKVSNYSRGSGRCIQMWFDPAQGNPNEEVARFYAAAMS
- protocol.text: cell-based or functional assay

# binder, INTL % (60 min)
rows = [
    ("MORAb-003 anti-FRA antibody, lot NB810-11 (galactose supplement; harvested 14 days after initiation of culture) (antibody, human IgG1, kappa, V domains shown, N-linked neutral glycans at Asn299 in SEQ ID NO: 5) VH: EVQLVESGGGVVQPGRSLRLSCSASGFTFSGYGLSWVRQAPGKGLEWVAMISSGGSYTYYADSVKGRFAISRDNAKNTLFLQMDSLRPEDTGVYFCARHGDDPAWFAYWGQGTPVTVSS VL: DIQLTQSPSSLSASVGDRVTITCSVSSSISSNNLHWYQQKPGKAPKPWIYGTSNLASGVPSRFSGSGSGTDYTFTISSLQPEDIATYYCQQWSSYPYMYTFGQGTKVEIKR", "29%"),
]
